protocol: inhibitors of the yeast RAM network, pilot screen, dse1pr::URA3 reporter, 5-FOA selection (AID 869);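 note: 0% = DMSO wells with no growth and 100% = 10 µM 1-NA-PP1 with full growth; RAM network block rescues cells from 5-FOA so hits raise OD615 growth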
condition-details: S. cerevisiae dse1pr::URA3 5-FOA growth, OD615, 2 d; at 10 µM; stronger effect = higher value; strain carries analog-sensitive mutant Cbk1 kinase
The source made the active and inactive calls.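 Rule for the calls: active = inhibition over a set limit, the all-compound mean plus 3 SD, in both replicate runs; inconclusive = over that limit in just one replicate run; inactive = at or under that limit in both runs.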
result-type: inhibition

Lab note: Cn1cc(S(=O)(=O)CC(=O)Nc2ccc3c(c2)OCCO3)c2ccccc21 gave inhibition of 3.01% (inactive)

Lab note: measured inhibition of COc1ccc(C2C(C(=O)NCC3CCCO3)c3cc(OC)c(OC)cc3C(=O)N2C)cc1OC (configuration not stated) was 1.46% (inactive)

Record summary for Cc1ccc(-c2nc(S(=O)(=O)c3ccc(F)cc3)c(SCC(=O)NCC3CCCO3)o2)cc1 (configuration not stated) : reported inhibition = 0.14% (inactive)

What the record says about CS(=O)(=O)Nc1ccccc1Oc1ccccc1 : inhibition is -0.23% (inactive)

For COc1ccc(NC(=O)N2CCC(c3ccccc3)C2)c(OC)c1 (configuration not stated) the compound record lists inhibition as 0.67% (inactive)

Documented inhibition of Cc1cccc(-c2nnc(-c3ccccc3)o2)c1 : 1.5% (inactive)

Reported inhibition ( CC1CCCCN1Cc1nc2c(c(=O)n(C)c(=O)n2C)n1Cc1cccc2ccccc12 (configuration not stated) ) = 1.91% (inactive)

inhibition reading for O=C(Cc1c(C(=O)O)[nH]c2ccccc12)Nc1ccc2c(c1)OCO2 : 0.445% (inactive)

# inhibition (compound: O=C(c1oc(=O)c2ccccc2c1-c1ccccc1)N1CCC(O)CC1 ) is 1.25% (inactive)

inhibition reading for CCN1CCN(Cc2nc3c(c(=O)n(C)c(=O)n3C)n2CCCc2ccccc2)CC1 : 0.665% (inactive)

Sure, the documented inhibition for O=C(CCS(=O)(=O)c1ccccc1)Nc1nc2c(s1)COc1ccccc1-2 is 1.32% (inactive)

inhibition measured on COCCCNC(=O)c1ccc(Cn2c(=O)[nH]c3ccccc3c2=O)cc1 = 1.89% (inactive)

// COC(=O)c1cc(CSc2nc3ccc(C)cc3[nH]2)oc1C : inhibition value = 0.105% (inactive)

Per the records, this compound ( CS(=O)(=O)c1nc(-c2cccs2)cc(C(F)(F)F)n1 ) has inhibition equal to 2.05% (inactive)

Input O=C(c1ccco1)N1CCN(c2nc3ccsc3c(=O)s2)CC1 . Output inhibition: 2.1% (inactive)

inhibition in this record for O=C1c2cccnc2C(=O)N1Cc1cccs1 : 1.4% (inactive)

Looking up O=C(O)CCCC(=O)Nc1ccc(Cl)c(Cl)c1 , I see its inhibition listed as 0.165% (inactive)

The compound identified as CCS(=O)(=O)N1CCN(C(=O)c2cccs2)CC1 registered its inhibition at 3.8% (inactive)

inhibition reading for CCCOC(=O)c1ccc(NC(=O)C2C3C=CC(O3)C2C(=O)O)cc1 (configuration not stated) : 1.27% (inactive)

Field inhibition (entry Clc1ccccc1-c1ccc(/C=N/n2cnnc2)o1 ) reads 1.61% (inactive)

Entry under test: COc1ccc(C(=O)N2CCN(c3c(C)cccc3C)CC2)cc1OC . Its inhibition was 0.89% (inactive)

Short answer for COc1cc(C(=O)N2CCN(c3cccc(C)c3C)CC2)cc(OC)c1OC : inhibition was -0.125% (inactive)

What the record says about N#C/C(=C1/CCCCCN1)c1nnc2n1CCCCC2 : inhibition is 0.985% (inactive)

inhibition reading for Cc1sc2ncnc(SCC(=O)c3cccs3)c2c1C : 0.73% (inactive)

The compound identified as COc1ccccc1N1CCN(C2=CC(=O)CCC2)CC1 registered its inhibition at 0.81% (inactive)

GET /value?item= CCOC(=O)C1CCN(CCC(=O)Nc2cccc(Cl)c2C)CC1 &field=inhibition returns 1.46% (inactive)

Reported inhibition of CC1Cc2ccccc2N1Cc1nc2scc(-c3cccs3)c2c(=O)[nH]1 (configuration not stated) : 1.77% (inactive)

For reference, reported inhibition for CC(C)N(C(=O)C1CC(=O)OC12CCCCC2)C(C)C (configuration not stated) stands at 1.32% (inactive)

# compound O=C(CSc1nc2c(c(=O)n1-c1ccc(Br)cc1)SCC2)NCc1ccco1 ; its inhibition = 0.41% (inactive)

Form field inhibition, entry Cc1ccccc1CSc1nnc(-c2ccco2)n1Cc1ccco1 : 0.145% (inactive)

response.value for Cc1ccc(S(=O)(=O)c2nc(-c3ccc(F)cc3)oc2SCC(=O)NCC2CCCO2)cc1 (configuration not stated) (field: inhibition) = 0.69% (inactive)

The compound listed as Cc1cc(Nc2ccc(F)cc2Cl)n2ncnc2n1 has a reported inhibition of -0.7% (inactive)

---

protocol: growth suppression of PTEN-deleted HCT116, pilot screen, cell-based, HCT116 clonal line, CellTiter-Glo (AID 824);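 note: 0% = 20 µM Hyamine control and 100% = vehicle cell control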
condition-details: 60 h, at 10 µM, stronger effect = lower value
Inconclusive results are not listed.
result-type: viability (%)
Respond with the bare value in %.

Value of viability reported for the compound Cn1c(SCC(=O)Nc2ccc(F)cc2F)nnc1-c1cccnc1 is 95

# viability of CC(C)(C)c1ccc(OCC(=O)N2CCN(C=O)CC2)cc1 = 100

Per the record, Cc1oc(-c2cccc(Cl)c2)nc1CN1CCCC(C(=O)NC(C)c2ccc3c(c2)OCCO3)C1 (stereo unspecified) has viability of 37.5

Reported viability for Cc1ccc(CNC(=O)c2oc3ccc(S(=O)(=O)N4CCC5(CC4)OCCO5)cc3c2C)cc1 was 52.6

Kindly note the recorded viability for Cn1c(Cn2c(=O)sc3ccccc32)nnc1SCC(=O)NC1CCCCC1 , which is 98

viability measured on CCN(CC)S(=O)(=O)c1ccc(C2CNC(=O)C2)cc1 (stereo unspecified) = 102

---

protocol: HUVEC growth inhibition – cell-based, human, primary screen (AID 575);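 note: 100% = median of untreated cell wells with 0.1% DMSO on each plate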
condition-details: HUVEC proliferation, CellTiter-Glo luminescence, 72 h; at 10 µM; stronger effect = lower value
I'd be grateful if you could share measured viability for these entries.
Note: unit % is implicit; provide only the numeric part.

viability in this record for c1ccc2[nH]c(-c3cscn3)nc2c1 : 91.1

Per the records, this compound ( CCOc1ccc(C(=O)N2CCN(c3ccccc3)CC2)cc1OCC ) has viability equal to 90

Please fill in: viability reported for O=C1c2ccccc2C(O)(Cc2ccccc2)N1Cc1ccco1 (stereo not drawn) = 89

---

For each entry below, report its Her2 level value.
tgt: Receptor tyrosine-protein kinase erbB-2 (Homo sapiens) (UniProt P04626)
Sequence (P04626 whole entry, looked up): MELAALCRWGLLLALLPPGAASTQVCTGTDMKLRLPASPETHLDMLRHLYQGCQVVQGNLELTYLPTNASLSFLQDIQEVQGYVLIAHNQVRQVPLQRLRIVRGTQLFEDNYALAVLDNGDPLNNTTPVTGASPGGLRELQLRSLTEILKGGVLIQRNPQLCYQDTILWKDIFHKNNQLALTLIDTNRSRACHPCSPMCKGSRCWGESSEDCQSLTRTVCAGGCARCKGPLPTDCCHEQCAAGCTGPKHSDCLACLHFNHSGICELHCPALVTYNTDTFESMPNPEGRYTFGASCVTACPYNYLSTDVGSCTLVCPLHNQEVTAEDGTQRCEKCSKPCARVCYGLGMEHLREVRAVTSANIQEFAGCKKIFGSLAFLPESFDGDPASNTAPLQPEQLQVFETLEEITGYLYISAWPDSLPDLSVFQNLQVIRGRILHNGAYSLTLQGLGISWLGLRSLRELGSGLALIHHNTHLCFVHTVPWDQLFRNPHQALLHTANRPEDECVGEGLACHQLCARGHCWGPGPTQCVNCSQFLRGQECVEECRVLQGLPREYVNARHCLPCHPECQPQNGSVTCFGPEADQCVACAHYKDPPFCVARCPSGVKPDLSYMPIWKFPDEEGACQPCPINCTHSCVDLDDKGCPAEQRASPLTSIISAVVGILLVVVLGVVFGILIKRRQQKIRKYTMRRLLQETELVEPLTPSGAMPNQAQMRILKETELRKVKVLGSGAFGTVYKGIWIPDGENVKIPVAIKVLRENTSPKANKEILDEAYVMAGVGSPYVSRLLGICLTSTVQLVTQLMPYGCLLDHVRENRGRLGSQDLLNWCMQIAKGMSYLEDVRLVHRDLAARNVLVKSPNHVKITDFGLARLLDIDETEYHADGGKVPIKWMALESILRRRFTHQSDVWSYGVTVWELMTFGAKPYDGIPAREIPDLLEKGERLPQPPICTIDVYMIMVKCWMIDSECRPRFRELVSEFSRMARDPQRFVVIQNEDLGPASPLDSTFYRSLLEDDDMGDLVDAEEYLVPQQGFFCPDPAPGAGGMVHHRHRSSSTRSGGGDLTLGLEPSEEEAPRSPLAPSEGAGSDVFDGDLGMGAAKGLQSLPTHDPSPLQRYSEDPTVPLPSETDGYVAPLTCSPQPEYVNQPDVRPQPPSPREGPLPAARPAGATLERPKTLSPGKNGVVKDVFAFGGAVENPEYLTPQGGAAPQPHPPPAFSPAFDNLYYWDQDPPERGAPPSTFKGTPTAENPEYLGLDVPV
protocol: reducers of endogenous Her2 protein level, primary screen, SKBR3 breast tumor cells, AlphaScreen, ATP viability (AID 461);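 note: lower value means less Her2 protein in the cells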
condition-details: 18-24 h, at 10 µM, stronger effect = lower value
Numeric answer only, unit % assumed.

// recorded Her2 level for Cc1coc2cc3oc(=O)c4c(c3cc12)CCC4 : 81.5

Reported Her2 level ( Nc1ccc2cn[nH]c2c1 ) = 128

Per the records, this molecule ( CC1CCc2c(sc(N)c2C(N)=O)C1 (configuration not stated) ) has Her2 level equal to 81

Value of measured Her2 level for the entry O=C(O)CCCCCNc1nc(=S)[nH]c2ccccc12 : 99

Per the records, this molecule ( Nc1ccc(S(=O)(=O)Nc2ncccn2)cc1 ) has Her2 level equal to 100

Short answer for CC(C)CCNC(=O)NC(=O)CSc1nnc(COc2ccccc2Cl)o1 : Her2 level was 80.5

Per the record, Cc1ccc(-c2cc(C(=O)Nc3cc(C)ccc3C)[nH]n2)c(O)c1 has Her2 level of 88

// field: Her2 level; key: c1ccc(CNc2ccc3c(c2)ncn3C2CCCCC2)nc1 ; value = 107

Kindly note the recorded Her2 level for COc1cccc(OC)c1OCCNCCO , which is 98

In plain terms, COc1ccc(-c2nc(C#N)c(N3CCN(c4ccccc4)CC3)o2)cc1 has a documented Her2 level of 98.5

Memo: CCOC(=O)c1c(C)[nH]c(C(=O)CSc2nc3ccccc3o2)c1C , reported Her2 level: 85

For this molecule ( CCCCCn1c(CN2CCN(C)CC2)nc2c1c(=O)n(C)c(=O)n2C ), measured Her2 level is 103

Entry CCOC(=O)C1CCCN(C(=O)c2cc(=O)c3ccccc3o2)C1 (configuration not stated) ; Her2 level = 87

Record COc1ccc(NC(=O)CCS(=O)(=O)c2ccc(OC)cc2)cc1 , field Her2 level: 104

Her2 level measured on CCCC(=O)Nc1nnc(CC(=O)OCC)s1 = 108

Consider Cc1ccccc1-c1nc(CN2CCC(C(=O)NCCCN3CCCC3)CC2)c(C)o1 . Its measured Her2 level is 91.5

Her2 level in this record for O=C(NCc1ccc(F)cc1)C1CCN(C(=O)NCc2ccccc2)CC1 : 110

Kindly note the recorded Her2 level for COc1ccc(-c2cc3nc4n(c(=O)c3s2)CCC4)cc1 , which is 101

In plain terms, CCN(CCO)C1CC(=O)N(c2ccccc2C)C1=O (configuration not stated) has a documented Her2 level of 93.5

NC(Cc1ccc(Oc2ccc(O)cc2)cc1)C(=O)O (configuration not stated) has a reported Her2 level of 97

The reported Her2 level of the molecule Nc1ccc2[nH]ncc2c1 was 106

The molecule identified as O=C(CN(CCc1ccccc1)C(=O)CNS(=O)(=O)c1ccccc1)NCC1CCCO1 (configuration not stated) registered its Her2 level at 87.5

get_value(item= CCOCCCNC(=O)CC1Oc2ccc(C)cc2NC1=O (configuration not stated) , readout=Her2 level) returns 100

Lab note: CCOC(=O)C(NC(C)=O)(NS(=O)(=O)c1ccccc1)C(F)(F)F (configuration not stated) gave Her2 level of 101

Kindly note the recorded Her2 level for Cc1cc2cc(CN(CCCN3CCOCC3)C(=O)NC3CCCCC3)c(=O)[nH]c2cc1C , which is 83

Recorded Her2 level (molecule CCCC(=O)Nc1ncnc2c1ncn2[C@@H]1O[C@@H]2COP(=O)(O)O[C@H]2[C@H]1OC(=O)CCC ): 104

Memo: O=C(CSc1nnc(C2CC2)n1Cc1ccccc1)c1ccc(S(=O)(=O)N2CCOCC2)cc1 , reported Her2 level: 92

Lab note: CCOC(=O)C1CCCN(C(=O)c2ccc3c(=O)n(CCOC)c(=S)[nH]c3c2)C1 (configuration not stated) gave Her2 level of 83

For record O=C(CCCN1C(=O)c2ccccc2C1=O)Oc1ccc(F)cc1 the listed Her2 level is 98

// Cc1cccc(Cn2c(=O)n(Cc3ccco3)c(=O)c3ccccc32)c1 : Her2 level value = 97.5

Reported Her2 level ( COc1cccc(OC)c1C(=O)N1CCN(S(=O)(=O)c2ccccc2)CC1 ) = 82.5

Just so you know, measured Her2 level for O=C(NC1CCCCC1)c1cc2nc(-c3ccco3)cc(C(F)(F)F)n2n1 came out at 93

According to the records, this molecule CCOC(=O)CSc1nc(N)c2c3c(sc2n1)CCCC3 displays Her2 level of 96.5

Her2 level recorded for this molecule, CCCN(CCC)S(=O)(=O)c1ccc(NS(C)(=O)=O)cc1 , is 124

For record O=C(CCN1CCc2ccccc2C1)Nc1ccc2c(c1)OCO2 the listed Her2 level is 94

Just so you know, measured Her2 level for COc1ccc(CN(CCN(C)C)c2ccccn2)cc1 came out at 104

According to the records, this molecule Cc1nnc(NS(=O)(=O)c2ccc(N)cc2)s1 displays Her2 level of 126
